Reported values of inhibition for individual entries
molecular target: Aldo-keto reductase family 1 member B1 (Bos taurus) (UniProt P16116); test: Inhibition of aldose reductase activity in a partially purified bovine lens preparation at 10e-7 M
Number only, in %; omit the unit.

Some compounds with known inhibition results, for comparison:
INSERT INTO results (compound, recorded_number) VALUES
  ('COc1ccc2c(c1)C(=O)N(C)C(=O)C21CC(=O)NC1=O (configuration not stated)', 55),
  ('COc1cc2c(cc1Cl)C1(CC(=O)NC1=O)C(=O)N(C)C2=O (configuration not stated)', 84),
  ('CN1C(=O)c2ccc(C(F)(F)F)cc2C2(CC(=O)NC2=O)C1=O (configuration not stated)', 64),
  ('CN1C(=O)c2cccc(Cl)c2C2(CC(=O)NC2=O)C1=O (configuration not stated)', 24),
  ('CON1C(=O)c2ccc(Cl)cc2C2(CC(=O)NC2=O)C1=O (configuration not stated)', 27),
  ('CN1C(=O)c2ccc(F)cc2C2(CC(=O)NC2=O)C1=O (configuration not stated)', 74);

# next compound below
Give recorded inhibition with Aldo-keto reductase family 1 member B1 (Bos taurus) (UniProt P16116) for the following compound: CN1C(=O)c2cc(Cl)ccc2C2(CC(=O)NC2=O)C1=O (configuration not stated) 61

###

target: Aldo-keto reductase family 1 member B1 (Bos taurus); experiment: In vitro inhibition of aldose reductase activity in a partially purified bovine lens preparation
parameter_measured: IC50 (nM)
Number only, in nM; omit the unit.

INSERT INTO measurements (compound, subject_of_test, parameter_measured, units_label, recorded_number) VALUES
  ('O=C1C[C@@]2(C(=O)N1)C(=O)N(Cc1ccc(Br)cc1F)C(=O)c1ccc(F)cc12', 'Aldo-keto reductase family 1 member B1 (Bos taurus)', 'IC50', 'nM', 9),
  ('O=C1CC2(C(=O)N1)C(=O)N(Cc1ccc(Cl)cc1)C(=O)c1ccccc12 (stereo unspecified)', 'Aldo-keto reductase family 1 member B1 (Bos taurus)', 'IC50', 'nM', 22),
  ('O=C1CC2(C(=O)N1)C(=O)N(Cc1nc3ccccc3s1)C(=O)c1ccc(F)cc12 (stereo unspecified)', 'Aldo-keto reductase family 1 member B1 (Bos taurus)', 'IC50', 'nM', 18),
  ('COc1ccc(CN2C(=O)c3ccccc3C3(CC(=O)NC3=O)C2=O)cc1 (stereo unspecified)', 'Aldo-keto reductase family 1 member B1 (Bos taurus)', 'IC50', 'nM', 25),
  ('O=C1CC2(C(=O)N1)C(=O)N(Cc1nc3ccccc3s1)C(=O)c1ccccc12 (stereo unspecified)', 'Aldo-keto reductase family 1 member B1 (Bos taurus)', 'IC50', 'nM', 15);

# next compound below
# query: IC50 of entry O=C1CC2(C(=O)N1)C(=O)N(Cc1ccc(Br)cc1F)C(=O)c1ccc(Cl)cc12 (stereo unspecified) 30

###

target: UniProtKB P16116; assay: Inhibition of aldose reductase activity in a partially purified bovine lens preparation at 10e-7 M
Reported values of inhibition for individual entries
Number only, in %; omit the unit.

# query: inhibition of entry CN1C(=O)c2ccc(Cl)cc2C2(CC(=O)NC2=O)C1=O (stereo unspecified) 72

Likewise for CN1C(=O)c2cc(Cl)c(Cl)cc2C2(CC(=O)NC2=O)C1=O (stereo unspecified) ? 89

Likewise for COc1cc2c(cc1Br)C(=O)N(C)C(=O)C21CC(=O)NC1=O (stereo unspecified) ? 17

Likewise for CCCN1C(=O)c2ccccc2C2(CC(=O)NC2=O)C1=O (stereo unspecified) ? 19

Likewise for COc1ccc2c(c1)C1(CC(=O)NC1=O)C(=O)N(C)C2=O (stereo unspecified) ? 63

Likewise for CN1C(=O)c2ccccc2C2(CC(=O)NC2=O)C1=O (stereo unspecified) ? 63

Reference source: ChEMBL document CHEMBL1127561
